METHOD_NOTES: NCI Yeast Anticancer Drug Screen. Data for the sgs1 mgt1 strain (AID 161)
CONDITION: S. cerevisiae sgs1 mgt1 strain, at 50.0 µM (retest, dose inferred, filed as 5.0)
This is part of a sample that, as a whole, favours compounds with a hit. Of some 79,000 tested, about 15% had one in any assay. Active and inactive are the calls of the source. Rule as the data show it: active = growth inhibition above about 70%; inactive = the rest.
Allowed answers: active, inactive

[[record]]
molecule = "O=C(Cc1ccccc1)NNc1nc(NNC(=O)c2ccncc2)nc(Nc2ccccc2)n1"
class_assignment = "inactive"

[[record]]
molecule = "c1ccc2c(c1)ccc1c[n+]3c4ccccc4ccc3n12"
class_assignment = "active"

[[record]]
molecule = "c1ccc(OCC2c3ccccc3Nc3ccccc32)cc1"
class_assignment = "active"

[[record]]
molecule = "Cc1occc1C(=S)Nc1ccc(Cl)c(/C=N/OC(C)C)c1"
class_assignment = "active"

[[record]]
molecule = "Cc1ccc(N=C(N)Nc2ccc(C)cn2)nc1"
class_assignment = "inactive"


Q. I'd appreciate the recorded outcome for COc1ccc2c(c1)[n+]([O-])c(-c1ccc(Cl)cc1)c(N)[n+]2[O-] from this test.
A. active

Q. Write down the call the test reported for this molecule. Item: Cc1cc(O)c(NCCN(C)C)c2c(=O)c3ccccc3sc12
A. active
